Origin of values: ChEMBL document CHEMBL5537198

# PROTOCOL_DETAILS: in vivo
# MEASUREMENT_CONDITIONS: Wistar Han, rat, urine, iv; at 0.6 to 2 µmol/kg
ENDPOINT_LABEL: dose excreted (%)
Quick note: give the figure in %, leave out the unit.

Here's what some known entries look like.
- COMPOUND: "CC(=O)N[C@H]1CSCCC(=O)N2CN3CN(C2)C(=O)CCSC[C@H](NC(=O)[C@H](CC(=O)O)NC(=O)[C@H](CCC(=O)O)NC(=O)[C@H](CC(C)(C)C)NC(=O)C(Cc2cn(C)c4ccccc24)NC(=O)[C@H](CCC(N)=O)NC1=O)C(=O)N[C@@H](Cc1cn(C)c2ccccc12)C(=O)N[C@@H](CCCNC(=N)N(C)C)C(=O)NCC(=O)N[C@@H](Cc1ccc(F)cc1)C(=O)N[C@H](C(N)=O)CSCCC3=O (stereo partly drawn)"
  ENDPOINT_LABEL: "dose excreted"
  UNIT_TAG: "%"
  OBSERVED_VALUE: 1
- COMPOUND: "CC(=O)N[C@H]1CSCCC(=O)N2CN3CN(C2)C(=O)CCSC[C@H](NC(=O)[C@H](CC(N)=O)NC(=O)[C@H](CCC(=O)O)NC(=O)[C@H](CC(C)C)NC(=O)[C@H](Cc2c[nH]c4ccccc24)NC(=O)[C@H](Cc2c[nH]cn2)NC1=O)C(=O)N[C@@H](Cc1c[nH]c2ccccc12)C(=O)N[C@@H](CCCNC(=N)N)C(=O)NCC(=O)N[C@@H](Cc1ccccc1)C(=O)N[C@H](C(N)=O)CSCCC3=O"
  ENDPOINT_LABEL: "dose excreted"
  UNIT_TAG: "%"
  OBSERVED_VALUE: 64

Can you look up the measured dose excreted of `CC(=O)N[C@H]1CSCCC(=O)N2CN3CN(C2)C(=O)CCSC[C@@H]2NC(=O)[C@H](CC(=O)O)NC(=O)[C@H](CCC(=O)O)NC(=O)[C@H](CC(C)C)NC(=O)[C@H](CC/C=C/CC[C@H](NC(=O)[C@H](Cc4c[nH]c5ccccc45)NC2=O)C(=O)NCC(=O)N[C@@H](Cc2ccc(F)cc2)C(=O)N[C@H](C(N)=O)CSCCC3=O)NC(=O)[C@H](CCC(N)=O)NC1=O` for me?
0.1

---

# PROTOCOL_DETAILS: in vivo
# MEASUREMENT_CONDITIONS: Wistar Han, rat, iv
Listing of entries alongside the reported clearance.
Quick note: give the figure in mL/min/kg, leave out the unit.

Here's what some known entries look like.
- COMPOUND: "CC(=O)N[C@H]1CSCCC(=O)N2CN3CN(C2)C(=O)CCSC[C@H](NC(=O)[C@H](CC(=O)O)NC(=O)[C@H](CCC(N)=O)NC(=O)[C@H](CC(C)(C)C)NC(=O)[C@H](Cc2cn(C)c4ccccc24)NC(=O)[C@H](CCC(N)=O)NC1=O)C(=O)N[C@@H](Cc1cn(C)c2ccccc12)C(=O)N[C@@H](CCCNC(=N)N(C)C)C(=O)NCC(=O)N[C@@H](Cc1ccc(F)c(Cl)c1)C(=O)N[C@H](C(N)=O)CSCCC3=O"
  UNIT_TAG: "mL/min/kg"
  clearance: 6.4
- COMPOUND: "CC(=O)N[C@H]1CSCCC(=O)N2CN3CN(C2)C(=O)CCSC[C@H](NC(=O)[C@H](CC(=O)O)NC(=O)[C@H](CCC(=O)O)NC(=O)[C@H](CC(C)(C)C)NC(=O)C(Cc2cn(C)c4ccccc24)NC(=O)[C@H](CCC(N)=O)NC1=O)C(=O)N[C@@H](Cc1cn(C)c2ccccc12)C(=O)N[C@@H](CCCNC(=N)N(C)C)C(=O)NCC(=O)N[C@@H](Cc1ccc(F)cc1)C(=O)N[C@H](C(N)=O)CSCCC3=O (some centres undefined)"
  UNIT_TAG: "mL/min/kg"
  clearance: 12
- COMPOUND: "CC(=O)N[C@H]1CSCCC(=O)N2CN3CN(C2)C(=O)CCSC[C@@H]2NC(=O)[C@H](CC(=O)O)NC(=O)[C@H](CCC(=O)O)NC(=O)[C@H](CC(C)C)NC(=O)[C@H](CC/C=C/CC[C@H](NC(=O)[C@H](Cc4c[nH]c5ccccc45)NC2=O)C(=O)NCC(=O)N[C@@H](Cc2ccc(F)cc2)C(=O)N[C@H](C(N)=O)CSCCC3=O)NC(=O)[C@H](CCC(N)=O)NC1=O"
  UNIT_TAG: "mL/min/kg"
  clearance: 46

Now for a further compound.
Can you look up the measured clearance of `CC(=O)N[C@H]1CSCCC(=O)N2CN3CN(C2)C(=O)CCSC[C@H](NC(=O)[C@@H](CC(=O)O)NC(=O)[C@H](CCC(=O)O)NC(=O)[C@H](CC(C)C)NC(=O)[C@H](Cc2c[nH]c4ccccc24)NC(=O)[C@@H](CCC(N)=O)NC1=O)C(=O)N[C@@H](Cc1c[nH]c2ccccc12)C(=O)N[C@@H](CCCNC(=N)N)C(=O)NCC(=O)N[C@@H](Cc1ccc(F)cc1)C(=O)N[C@H](C(=O)O)CSCCC3=O` for me?
45

---

# PROTOCOL_DETAILS: in vitro
# MEASUREMENT_CONDITIONS: Wistar Han, rat, lung S9 fraction
Listing of entries alongside the reported half-life at 1 h, 10 µM.
Quick note: give the figure in min, leave out the unit.

Here's what some known entries look like.
- COMPOUND_SMILES: "CC(=O)N[C@H]1CSCCC(=O)N2CN3CN(C2)C(=O)CCSC[C@H](NC(=O)[C@H](CC(=O)O)NC(=O)[C@H](CCC(N)=O)NC(=O)[C@H](CC(C)(C)C)NC(=O)[C@H](Cc2cn(C)c4ccccc24)NC(=O)[C@H](C)N(C)C1=O)C(=O)N[C@@H](Cc1cn(C)c2ccccc12)C(=O)N[C@@H](CCCNC(=N)N(C)C)C(=O)NCC(=O)N[C@@H](Cc1ccc(F)cc1)C(=O)N[C@H](C(N)=O)CSCCC3=O"
  half-life at 1 h, 10 µM / min: 143
- COMPOUND_SMILES: "CC(=O)N[C@H]1CSCCC(=O)N2CN3CN(C2)C(=O)CCSC[C@@H]2NC(=O)[C@H](CC(=O)O)NC(=O)[C@H](CCC(=O)O)NC(=O)[C@H](CC(C)C)NC(=O)[C@H](CCCCCC[C@H](NC(=O)[C@H](Cc4c[nH]c5ccccc45)NC2=O)C(=O)NCC(=O)N[C@@H](Cc2ccc(F)cc2)C(=O)N[C@H](C(N)=O)CSCCC3=O)NC(=O)[C@H](CCC(N)=O)NC1=O"
  half-life at 1 h, 10 µM / min: 34

Now for a further compound.
Can you look up the measured half-life at 1 h, 10 µM of `CC(=O)N[C@H]1CSCCC(=O)N2CN3CN(C2)C(=O)CCSC[C@@H]2NC(=O)[C@H](CC(=O)O)NC(=O)[C@H](CCC(=O)O)NC(=O)[C@H](CC(C)C)NC(=O)[C@H](CC/C=C/CC[C@H](NC(=O)[C@H](Cc4c[nH]c5ccccc45)NC2=O)C(=O)NCC(=O)N[C@@H](Cc2ccc(F)cc2)C(=O)N[C@H](C(N)=O)CSCCC3=O)NC(=O)[C@H](CCC(N)=O)NC1=O` for me?
48

---

# PROTOCOL_DETAILS: in vivo
# MEASUREMENT_CONDITIONS: Wistar Han, rat, iv
ENDPOINT_LABEL: Vd (L/kg)
Quick note: give the figure in L/kg, leave out the unit.

Here's what some known entries look like.
- COMPOUND: "CC(=O)N[C@H]1CSCCC(=O)N2CN3CN(C2)C(=O)CCSC[C@H](NC(=O)[C@H](CC(N)=O)NC(=O)[C@H](CCC(=O)O)NC(=O)[C@H](CC(C)C)NC(=O)[C@H](Cc2c[nH]c4ccccc24)NC(=O)[C@H](Cc2c[nH]cn2)NC1=O)C(=O)N[C@@H](Cc1c[nH]c2ccccc12)C(=O)N[C@@H](CCCNC(=N)N)C(=O)NCC(=O)N[C@@H](Cc1ccccc1)C(=O)N[C@H](C(N)=O)CSCCC3=O"
  UNIT_TAG: "L/kg"
  Vd: 0.6
- COMPOUND: "CC(=O)N[C@H]1CSCCC(=O)N2CN3CN(C2)C(=O)CCSC[C@H](NC(=O)[C@H](CC(=O)O)NC(=O)[C@H](CCC(N)=O)NC(=O)[C@H](CC(C)(C)C)NC(=O)[C@H](Cc2cn(C)c4ccccc24)NC(=O)[C@H](CCC(N)=O)NC1=O)C(=O)N[C@@H](Cc1cn(C)c2ccccc12)C(=O)N[C@@H](CCCNC(=N)N(C)C)C(=O)NCC(=O)N[C@@H](Cc1ccc(F)c(Cl)c1)C(=O)N[C@H](C(N)=O)CSCCC3=O"
  UNIT_TAG: "L/kg"
  Vd: 0.32
- COMPOUND: "CC(=O)N[C@H]1CSCCC(=O)N2CN3CN(C2)C(=O)CCSC[C@H](NC(=O)[C@H](CC(=O)O)NC(=O)[C@H](CCC(=O)O)NC(=O)[C@H](CC(C)C)NC(=O)[C@H](Cc2c[nH]c4ccccc24)NC(=O)[C@H](CCC(N)=O)NC1=O)C(=O)N[C@@H](Cc1c[nH]c2ccccc12)C(=O)N[C@@H](CCCNC(=N)N)C(=O)NCC(=O)N[C@@H](Cc1ccc(F)cc1)C(=O)N[C@H](C(=O)N[C@@H](C)C(N)=O)CSCCC3=O"
  UNIT_TAG: "L/kg"
  Vd: 0.3
- COMPOUND: "CC(=O)N[C@H]1CSCCC(=O)N2CN3CN(C2)C(=O)CCSC[C@H](NC(=O)[C@H](CC(=O)O)NC(=O)[C@H](CCC(=O)O)NC(=O)[C@H](CC(C)C)NC(=O)[C@H](Cc2cccc4ccccc24)NC(=O)[C@H](CCC(N)=O)NC1=O)C(=O)N[C@@H](Cc1c[nH]c2ccccc12)C(=O)N[C@@H](CCCNC(=N)N(C)C)C(=O)NCC(=O)N[C@@H](Cc1ccc(F)cc1)C(=O)N[C@H](C(=O)N[C@@H](C)C(N)=O)CSCCC3=O"
  UNIT_TAG: "L/kg"
  Vd: 0.23
- COMPOUND: "CC(=O)N[C@H]1CSCCC(=O)N2CN3CN(C2)C(=O)CCSC[C@H](NC(=O)[C@H](CC(=O)O)NC(=O)[C@H](CCC(=O)O)NC(=O)[C@H](CC(C)(C)C)NC(=O)C(Cc2cn(C)c4ccccc24)NC(=O)[C@H](CCC(N)=O)NC1=O)C(=O)N[C@@H](Cc1cn(C)c2ccccc12)C(=O)N[C@@H](CCCNC(=N)N(C)C)C(=O)NCC(=O)N[C@@H](Cc1ccc(F)cc1)C(=O)N[C@H](C(N)=O)CSCCC3=O (stereo partly drawn)"
  UNIT_TAG: "L/kg"
  Vd: 0.42
- COMPOUND: "CC(=O)N[C@H]1CSCCC(=O)N2CN3CN(C2)C(=O)CCSC[C@H](NC(=O)[C@H](CC(=O)O)NC(=O)[C@H](CCC(N)=O)NC(=O)[C@H](CC(C)(C)C)NC(=O)[C@H](Cc2cccc4ccccc24)NC(=O)[C@H](C)N(C)C1=O)C(=O)N[C@@H](Cc1cn(C)c2ccccc12)C(=O)N[C@@H](CCCNC(=N)N(C)C)C(=O)NCC(=O)N[C@@H](Cc1ccc(F)cc1)C(=O)N[C@H](C(=O)N[C@@H](C)C(N)=O)CSCCC3=O"
  UNIT_TAG: "L/kg"
  Vd: 0.41
- COMPOUND: "CC(=O)N[C@H]1CSCCC(=O)N2CN3CN(C2)C(=O)CCSC[C@@H]2NC(=O)[C@H](CC(=O)O)NC(=O)[C@H](CCC(=O)O)NC(=O)[C@H](CC(C)C)NC(=O)[C@H](CC/C=C/CC[C@H](NC(=O)[C@H](Cc4c[nH]c5ccccc45)NC2=O)C(=O)NCC(=O)N[C@@H](Cc2ccc(F)cc2)C(=O)N[C@H](C(N)=O)CSCCC3=O)NC(=O)[C@H](CCC(N)=O)NC1=O"
  UNIT_TAG: "L/kg"
  Vd: 0.21

Now for a further compound.
Can you look up the measured Vd of `CC(=O)N[C@H]1CSCCC(=O)N2CN3CN(C2)C(=O)CCSC[C@H](NC(=O)[C@@H](CC(=O)O)NC(=O)[C@H](CCC(=O)O)NC(=O)[C@H](CC(C)C)NC(=O)[C@H](Cc2c[nH]c4ccccc24)NC(=O)[C@@H](CCC(N)=O)NC1=O)C(=O)N[C@@H](Cc1c[nH]c2ccccc12)C(=O)N[C@@H](CCCNC(=N)N)C(=O)NCC(=O)N[C@@H](Cc1ccc(F)cc1)C(=O)N[C@H](C(=O)O)CSCCC3=O` for me?
0.13
